target: monkey GPC3-His protein (monkey); assay: ELISA, monkey GPC3-His coated; antibody 0.11 nM
// reported OD450 nm for each item listed
API doc: respond with a numeric literal and nothing else, no unit.

// solved cases for OD450 nm follow
BINDER: hAb007LH2L1a (antibody, human IgG1, V domains shown) VH: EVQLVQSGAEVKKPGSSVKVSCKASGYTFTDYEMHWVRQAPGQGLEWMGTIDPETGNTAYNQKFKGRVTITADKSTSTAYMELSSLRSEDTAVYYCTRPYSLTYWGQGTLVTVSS VL: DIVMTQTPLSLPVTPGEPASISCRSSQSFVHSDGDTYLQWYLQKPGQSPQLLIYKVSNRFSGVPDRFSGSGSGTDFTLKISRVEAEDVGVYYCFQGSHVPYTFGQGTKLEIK
READOUT_KIND: OD450 nm
NUMERIC_VALUE: 0.468
//
BINDER: hAb003LH1L1b (antibody, human IgG1, V domains shown) VH: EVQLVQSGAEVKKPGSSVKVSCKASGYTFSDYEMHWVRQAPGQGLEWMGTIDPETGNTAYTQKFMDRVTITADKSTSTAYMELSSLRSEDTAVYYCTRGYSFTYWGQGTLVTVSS VL: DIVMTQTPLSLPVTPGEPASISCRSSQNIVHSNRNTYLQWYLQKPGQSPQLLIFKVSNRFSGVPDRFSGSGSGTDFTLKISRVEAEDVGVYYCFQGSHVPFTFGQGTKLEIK
READOUT_KIND: OD450 nm
NUMERIC_VALUE: 2.18
//
BINDER: hAb003LH2L1a (antibody, human IgG1, V domains shown) VH: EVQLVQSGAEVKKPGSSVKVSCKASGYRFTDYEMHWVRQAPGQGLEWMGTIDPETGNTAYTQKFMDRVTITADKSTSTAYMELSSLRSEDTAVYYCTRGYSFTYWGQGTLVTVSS VL: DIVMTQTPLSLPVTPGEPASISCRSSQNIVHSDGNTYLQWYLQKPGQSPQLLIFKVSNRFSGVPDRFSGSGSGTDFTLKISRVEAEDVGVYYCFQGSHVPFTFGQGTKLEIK
READOUT_KIND: OD450 nm
NUMERIC_VALUE: 1.37

Please give the measured OD450 nm for this binder: hAb005LH2L1b (antibody, human IgG1, V domains shown) VH: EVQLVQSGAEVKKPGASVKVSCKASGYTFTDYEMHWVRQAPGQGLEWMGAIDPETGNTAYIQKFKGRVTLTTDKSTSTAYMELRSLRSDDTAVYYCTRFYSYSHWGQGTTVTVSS VL: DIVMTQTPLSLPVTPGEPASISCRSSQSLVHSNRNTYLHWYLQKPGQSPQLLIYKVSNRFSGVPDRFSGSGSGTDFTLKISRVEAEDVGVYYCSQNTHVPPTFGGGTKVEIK
1.17

Data origin: patent US20260116991A1
